# assay.explanation: galactose survival enhancers in mitochondrial complex I cybrids – cell-based, galactose medium, ATP luminescence, primary screen (AID 1645843);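 note: positive z means more ATP and so rescue of galactose-driven cybrid death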
# stated.conditions: complex I mutant cybrid cells, 72 h, stronger effect = higher value
Each entry below carries its reported z-score.
# output: bare number, no unit

CCCC(CCC)C(=O)OC1CC2CCC(C1)[N+]2(C)C (stereo not given); -0.005
N[C@@H](CCCC(=O)O)C(=O)O; 0.595
COc1ccc(/C=C/CN2CCc3c(cc(-c4cccc(-n5nc(C)cc5C)c4)c(=O)n3C)C2)cc1; -0.63
CCCCCCCCCCCCCCCC(=O)O[C@@H]1[C@@H](O)[C@@H](O)[C@@H](C(NC(=O)[C@@H]2C[C@@H](CCC)CN2C)C(C)Cl)O[C@@H]1SC (stereo not given in full); 0.11

The record that follows has no z-score shown yet.
Ask | # z-score lookup, item COc1cc(CC(CO)C(CO)Cc2ccc(O)c(OC)c2)ccc1O (stereo not given)
Reply | 0.405

---

Each entry below carries its reported inhibition.
# assay.explanation: RCMB18 cell growth, single agent and combined, cisplatin and BGB IC40 combos (AID 1671462);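 note: cells exposed to compound for four days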
# stated.conditions: RCMB18 medulloblastoma cells, cisplatin combo, at 5 µM, stronger effect = higher value
Non-standard residues stand in square brackets, D forms with d. Residues, ends and D or L forms follow the SMILES beside them. Dolaproine = CO[C@@H]([C@@H]1CCCN1)[C@@H](C)C(=O)O; Dil = CC[C@H](C)[C@H](NC)[C@@H](CC(=O)O)OC; NMeV = CN[C@H](C(=O)O)C(C)C
State the answer as a number, implicitly in %.

Example entries begin here.
O=c1[nH]c(=S)[nH]c2nc(-c3ccccc3)c(-c3ccccc3)nc12; -6.02
O=c1cc(-c2ccc(O)cc2)[nH]c(=S)[nH]1; -3.95
CC1OC(n2cc(F)c(=O)[nH]c2=O)C(O)C1O (configuration not stated); -44.8
CC[C@H](C)[C@@H]([C@@H](CC(=O)N1CCC[C@H]1[C@H](OC)[C@@H](C)C(=O)N[C@@H](Cc1ccccc1)C(=O)O)OC)N(C)C(=O)[C@@H](NC(=O)[C@@H](NC)C(C)C)C(C)C (H-[NMeV]V[Dil][Dolaproine]F-OH); 17

Ask | # inhibition lookup, item Cc1cn(C2CC(O)C(COP(=O)(O)OP(=O)(O)OP(=O)(O)O)O2)c(=O)[nH]c1=O (configuration not stated)
Reply | -2.93

Ask | # inhibition lookup, item Cc1ccc(NC(=O)CCCCCC(=O)Nc2ccccc2N)cc1
Reply | 67.3

Ask | # inhibition lookup, item NC(=O)c1cccc2cn(-c3ccc(C4CCCNC4)cc3)nc12 (configuration not stated)
Reply | -39.1

Ask | # inhibition lookup, item CCC1(O)C(=O)OCc2c1cc1n(c2=O)Cc2cc3cc(O)ccc3nc2-1 (configuration not stated)
Reply | 79.3

Ask | # inhibition lookup, item CC(=O)C1(O)Cc2c(O)c3c(c(O)c2C(OC2CC(N)C(O)C(C)O2)C1)C(=O)c1ccccc1C3=O (configuration not stated)
Reply | 89.9

Ask | # inhibition lookup, item COc1ccccc1S(=O)(=O)Nc1ccc2c(c1)CN(C)C(=O)N2
Reply | 7.58

Ask | # inhibition lookup, item CC(C)(O)[C@H]1CC[C@@](C)(C2[C@@H](O)C[C@@]3(C)[C@@H]4C[C@H](O)C5C(C)(C)[C@@H](O)CCC56CC46CC[C@]23C)O1 (some centres not stated)
Reply | -6.31

Ask | # inhibition lookup, item Nc1ccn(C2CCC(CO)O2)c(=O)n1 (configuration not stated)
Reply | 11.7

Source of measurements: PubChem BioAssay
